Dear all, this message contains IC50 results, target or system UniProt P0DTD1.

Example compounds with recorded IC50:
COc1cc(Cl)c(C)cc1Nc1cc(Cl)cc(CC(=O)Nc2cncc3ccccc23)c1 ... 1.58 µM
CNC(=O)CN1Cc2ccc(Cl)cc2C2(CCN(c3cncc4ccc(OC)cc34)C2=O)C1 (stereo unspecified) ... 0.153 µM
Cc1cccc(CC2CCN(C(=O)CCl)CC2)c1 ... 14.7 µM
O=C(NCCO)c1ccc(N(C(=O)c2cocn2)C(C(=O)NCCc2cccc(F)c2)c2cccnc2)cc1 (stereo unspecified) ... > 99.5 µM
O=C(Cc1cc(Cl)cc(Nc2ccc(Br)nc2)c1)Nc1cncc2ccccc12 ... 1.94 µM
C=CC(=O)N(c1ccc(C(C)(C)C)cc1)C(C(=O)NCC1CCCO1)c1cccnc1 (stereo unspecified) ... 90.5 µM
CC(C)(C)c1ccc(N(C(=O)c2cn3ccccc3n2)C(C(=O)NCCc2cccc(F)c2)c2cccnc2)cc1 (stereo unspecified) ... 18.2 µM
COc1ccc(N(C(=O)c2ccco2)C(C(=O)NCCc2cccc(F)c2)c2cccnc2)cc1 (stereo unspecified) ... 30.5 µM
CC1(C(=O)Nc2cncc3ccccc23)CNC(=O)c2ccc(Cl)cc21 (stereo unspecified) ... 0.876 µM
O=C(Cc1cc(Cl)cc(OC2CCC(=O)N2)c1)Nc1cncc2ccccc12 (stereo unspecified) ... 85.9 µM

Req: Requested field: IC50. Item: CN(Cc1cccc(Cl)c1)C(=O)Cn1nnc2ccccc21
Resp: > 99.5 µM

Req: Requested field: IC50. Item: O=C1NCC(C(=O)Nc2cnc3ccccn23)c2cc(Cl)ccc21 (stereo unspecified)
Resp: 5.93 µM

Req: Requested field: IC50. Item: O=C1NC2(COc3ccc(Cl)cc32)C(=O)N1c1cncc2ccc(F)cc12 (stereo unspecified)
Resp: 1.38 µM

Req: Requested field: IC50. Item: C=CC(=O)N(c1ccc(C(C)(C)C)cc1)C(C(=O)Nc1ccc(OC)cc1OC)c1cccnc1 (stereo unspecified)
Resp: 6.47 µM

Req: Requested field: IC50. Item: O=C(Cc1cccc(Cl)c1)Nc1cnccc1-c1ccccc1
Resp: 40.9 µM

Req: Requested field: IC50. Item: O=C(Cc1ccc(Cl)c(Cl)c1)Nc1cncc2cnccc12
Resp: 1.85 µM

---

Dear all, this message contains pIC50 results, target or system SARS-CoV-2 Main Protease (SARS-CoV-2).
Notebook: values listed as pIC50 are -log10 of the concentration (mol/L).

Example compounds with recorded pIC50:
O=C(Nc1cncc2ccccc12)C(CO)c1ccc(Cl)c(Cl)c1 (stereo unspecified) ... 4.71
Cc1ccncc1CC(=O)Nc1cccc(Cl)c1 ... 4.52

Req: Find the measured pIC50: item O=C(Nc1cncc2cc(F)ccc12)C1CCS(=O)(=O)c2ccc(Cl)cc21 (stereo unspecified) , target or system SARS-CoV-2 Main Protease (SARS-CoV-2).
Resp: 6.11

Req: Find the measured pIC50: item O=C(Nc1cccnc1)c1cc(Cl)ccc1-c1ccccc1 , target or system SARS-CoV-2 Main Protease (SARS-CoV-2).
Resp: 4.41

---

# study_target: SARS-CoV-2 Main Protease (SARS-CoV-2) (UniProt P0DTD1)
Checkbox rule: IC50 lower than 3 µM = yes; IC50 not lower than 3 µM = no.

Solved entries (count: 2):
CS(=O)(=O)N1Cc2cc(F)c(Cl)cc2C(C(=O)Nc2cncc3ccccc23)C1 (centres undefined) ... yes
O=C(CCl)N1CCN(Cc2cnc(Cc3ccccc3)s2)CC1 ... no

Req: Does O=C(Cc1cccc(Cl)c1)NC1=NC(=O)c2ccccc21 have IC50 strictly under 3 µM?
Resp: no

Req: Does CN1CCN(c2ccc(Nc3cc(Cl)cc(CC(=O)Nc4cncc5ccccc45)c3)cc2F)CC1 have IC50 strictly under 3 µM?
Resp: yes

Req: Does CC(C)(C)c1ccc(N(C(=O)c2cocn2)C(C(=O)NCC(=O)Nc2cccc([N+](=O)[O-])c2)c2cccnc2)cc1 (centres undefined) have IC50 strictly under 3 µM?
Resp: no

Req: Does COC1(CS(=O)(=O)N2Cc3ccc(Cl)cc3C3(CCN(c4cncc5ccccc45)C3=O)C2)CC1 (centres undefined) have IC50 strictly under 3 µM?
Resp: yes

Req: Does O=C1CC(c2ccc(N(C(=O)c3cocn3)C(C(=O)NCCc3cccc(F)c3)c3cccnc3)cc2)CC(=O)N1 (centres undefined) have IC50 strictly under 3 µM?
Resp: no

Req: Does CCCc1cc2c(cc1S(=O)(=O)N1CCN(c3ccccc3OC)CC1)OCO2 have IC50 strictly under 3 µM?
Resp: no

Req: Does Cc1ccc(S(=O)(=O)N2CCN(C(=O)CCl)C[C@H]2C(=O)NCCc2ccccc2)cc1 (stereo in doubt) have IC50 strictly under 3 µM?
Resp: no

Req: Does COC1CN(S(=O)(=O)N2Cc3ccc(Cl)cc3C3(CCN(c4cncc5ccccc45)C3=O)C2)C1 (centres undefined) have IC50 strictly under 3 µM?
Resp: yes

Req: Does O=C(Nc1ccc2nncn2c1)c1ccc2scnc2c1 have IC50 strictly under 3 µM?
Resp: no
